Measured values drawn from paper PMC7071076 for this set.

- method description: Pharmacokinetic study in mice
- Format: in vivo
- protocol conditions: female, ICR, mouse, plasma, intraperitoneal, 10 mg/kg, mice, intraperitoneal 10 mg/kg, 0.5 h, n = 8; read-out: plasma concentration, mean ± S.D
readout label: concentration at 0.5 h (ng/mL)
Field: numeric (ng/mL). Do not append units.

### Prompt Find the measured concentration at 0.5 h of C=C[C@]1(C)C[C@@H](OC(=O)CSc2ccccc2N)[C@]2(C)[C@H](C)CC[C@]3(CCC(=O)[C@H]32)[C@@H](C)[C@@H]1O [Amphenmulin] and report it.
### Response 980

* * *

- method description: Pharmacokinetic study in mice
- Format: in vivo
- protocol conditions: female, ICR, mouse, plasma, ip; mice, 10 mg/kg, intraperitoneal
readout label: Cmax (ng/mL)
Field: numeric (ng/mL). Do not append units.

### Prompt Find the measured Cmax of C=C[C@]1(C)C[C@@H](OC(=O)CSc2ccccc2N)[C@]2(C)[C@H](C)CC[C@]3(CCC(=O)[C@H]32)[C@@H](C)[C@@H]1O and report it.
### Response 1340
